Biological target: T1, αvβ3-integrin (recombinant, R&D Systems Cat #7889-AV-050)
T1 construct: Used as the analyte in SPR over immobilised MOP3; also called αvβ3-integrin receptor; auß3-integrin
T1 sequence (P43406 31-988, chain 1 of 2): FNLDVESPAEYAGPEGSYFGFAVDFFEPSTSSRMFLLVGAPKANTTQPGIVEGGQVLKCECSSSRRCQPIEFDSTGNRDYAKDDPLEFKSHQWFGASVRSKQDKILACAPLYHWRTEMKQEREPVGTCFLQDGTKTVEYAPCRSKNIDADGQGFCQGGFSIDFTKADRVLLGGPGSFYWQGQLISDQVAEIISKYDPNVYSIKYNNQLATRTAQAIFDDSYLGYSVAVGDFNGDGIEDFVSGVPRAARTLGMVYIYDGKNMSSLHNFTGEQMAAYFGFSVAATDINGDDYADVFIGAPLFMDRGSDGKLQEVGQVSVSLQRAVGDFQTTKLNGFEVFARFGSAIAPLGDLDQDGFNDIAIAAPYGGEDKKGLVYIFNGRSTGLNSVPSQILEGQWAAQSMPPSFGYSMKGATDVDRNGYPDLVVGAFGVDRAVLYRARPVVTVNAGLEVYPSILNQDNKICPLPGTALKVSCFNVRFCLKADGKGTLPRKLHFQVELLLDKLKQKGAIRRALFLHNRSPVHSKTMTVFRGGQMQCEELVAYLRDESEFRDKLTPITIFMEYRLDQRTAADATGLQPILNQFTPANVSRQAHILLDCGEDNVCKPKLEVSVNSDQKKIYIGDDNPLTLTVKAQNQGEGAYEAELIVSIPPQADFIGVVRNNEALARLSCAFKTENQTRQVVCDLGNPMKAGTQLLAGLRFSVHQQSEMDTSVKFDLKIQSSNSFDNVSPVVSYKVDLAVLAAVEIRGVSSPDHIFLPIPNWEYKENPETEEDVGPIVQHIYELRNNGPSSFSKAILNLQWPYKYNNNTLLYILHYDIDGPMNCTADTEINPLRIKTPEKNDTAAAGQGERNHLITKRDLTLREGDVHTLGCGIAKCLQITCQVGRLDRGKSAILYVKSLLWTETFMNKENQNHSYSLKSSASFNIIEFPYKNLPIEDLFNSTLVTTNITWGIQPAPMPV
T1 sequence (O54890 26-717, chain 2 of 2, further chain): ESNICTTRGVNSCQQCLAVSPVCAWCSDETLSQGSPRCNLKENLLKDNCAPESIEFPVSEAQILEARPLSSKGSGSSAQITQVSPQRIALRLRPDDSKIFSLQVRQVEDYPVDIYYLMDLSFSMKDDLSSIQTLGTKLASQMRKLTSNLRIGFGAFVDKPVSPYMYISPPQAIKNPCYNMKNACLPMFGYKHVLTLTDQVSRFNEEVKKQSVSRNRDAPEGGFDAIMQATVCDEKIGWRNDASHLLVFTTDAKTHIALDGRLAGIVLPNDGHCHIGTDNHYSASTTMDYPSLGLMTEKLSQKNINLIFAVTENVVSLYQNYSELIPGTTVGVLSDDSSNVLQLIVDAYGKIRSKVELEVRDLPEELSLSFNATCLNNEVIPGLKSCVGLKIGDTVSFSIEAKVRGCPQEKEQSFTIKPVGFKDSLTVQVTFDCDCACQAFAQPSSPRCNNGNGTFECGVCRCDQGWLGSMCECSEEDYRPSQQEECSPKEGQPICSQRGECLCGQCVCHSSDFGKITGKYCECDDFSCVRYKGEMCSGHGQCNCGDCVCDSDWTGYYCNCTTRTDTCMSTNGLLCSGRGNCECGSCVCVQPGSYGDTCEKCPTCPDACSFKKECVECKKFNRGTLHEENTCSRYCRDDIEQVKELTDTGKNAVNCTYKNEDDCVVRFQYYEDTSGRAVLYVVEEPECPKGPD
Experiment: SPR (Biacore/OpenSPR); αvβ3-integrin as analyte at 31.25-125 nM; 1:1 fit
Description: To examine the direct interaction between rmCIRP and rmMFG-E8, surface plasmon resonance (SPR), OpenSPR (Nicoya), was performed between rmCIRP and rmMFG-E8. rmCIRP was immobilized on carboxyl sensor and rmMFG-E8 was injected as an analyte in concentrations of 15.7 nM to 250 nM. […] To evaluate binding, the analyte was injected into flow cell-1 and flow cell-2 and increasing concentrations and real-time interaction data were analyzed by TraceDrawer (Nicoya). […]
Assay Readout: Kd (nM)
One number for each entry, in nM.

Kd in this record for RGDSSSYKTWNLRAFGWY (Synthetic 18-residue chimeric peptide: RGD followed by 15 residues of the mouse MFG-E8 discoidin domain 2) [MFG-E8-derived oligopeptide 3 (MOP3)] : 776
